# protocol: protein stability index of a GFP-peptide fusion (GPS, HEK-293T) (PSI 1-6); higher = more stable;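 also: 24-mer peptide tiles fused after GFP, lentivirally expressed, FACS-sorted into six equal bins by GFP/DsRed ratio, decoded by Illumina sequencing, PSI is the read-weighted mean bin number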
# assayContext: treatment: MLN4924 1 uM, 8 h; c terminus: a fixed tail appended
Decision: protein stability index >= 3 yields Fulfilled, all other cases yield Not fulfilled.

INPUT: Record GGKKDKARYIDTHNRVSKEDEDIY [PLK2] ; criterion: protein stability index no lower than 3. Met?
OUTPUT: Fulfilled

INPUT: Record GYEVAAAQGPNKPGYLVGRNNANG [CPN1] ; criterion: protein stability index no lower than 3. Met?
OUTPUT: Fulfilled

INPUT: Record QYLMASDMAGKIKLWDLRTTKCVR [DCAF4] ; criterion: protein stability index no lower than 3. Met?
OUTPUT: Not fulfilled

INPUT: Record EDEDPEEMPKSSDFLIHPPERSDL [PCDHGC5] ; criterion: protein stability index no lower than 3. Met?
OUTPUT: Fulfilled

INPUT: Record MACAYAPSGCAIACGGLDNKCSVY [GNB5] ; criterion: protein stability index no lower than 3. Met?
OUTPUT: Not fulfilled

INPUT: Record RFNQVLKNLLHAEFLRVQEERILH [VPS39] ; criterion: protein stability index no lower than 3. Met?
OUTPUT: Not fulfilled

INPUT: Record LQRPSYKFFFKSMDDDFGVVKEEI [DVL3] ; criterion: protein stability index no lower than 3. Met?
OUTPUT: Not fulfilled

INPUT: Record SLSEALDLIESDPDAWCDLSKFDL [MYBL2] ; criterion: protein stability index no lower than 3. Met?
OUTPUT: Fulfilled

INPUT: Record GKNLYTNEYVAIKLEPIKSRAPQL [CSNK1G1] ; criterion: protein stability index no lower than 3. Met?
OUTPUT: Not fulfilled

INPUT: Record LCEKFDYLYGILEERKNEMTQVIT [TRIM55] ; criterion: protein stability index no lower than 3. Met?
OUTPUT: Not fulfilled

INPUT: Record FLQNAKTLLKKISEASKAFQMEKI [TRIM55] ; criterion: protein stability index no lower than 3. Met?
OUTPUT: Not fulfilled

INPUT: Record DSTTTRQRRSRQNPQSPPQDSSVT [HDAC6] ; criterion: protein stability index no lower than 3. Met?
OUTPUT: Fulfilled

INPUT: Record PIDFEESRFYEIHARARDQGQPAM [PCDHGC5] ; criterion: protein stability index no lower than 3. Met?
OUTPUT: Fulfilled

INPUT: Record DEAKKFHLRPELRSQMQGPRTRAR [KLHL12] ; criterion: protein stability index no lower than 3. Met?
OUTPUT: Fulfilled

INPUT: Record RGGGDPWTNGSGLALCQRYYHRGH [MCOLN1] ; criterion: protein stability index no lower than 3. Met?
OUTPUT: Fulfilled

INPUT: Record KEAAEAIEAEGATAPLTELLHSRN [CTNNB1] ; criterion: protein stability index no lower than 3. Met?
OUTPUT: Fulfilled

INPUT: Record RICLGKFTFPGMSLDKRQGEGLRI [TPRG1] ; criterion: protein stability index no lower than 3. Met?
OUTPUT: Not fulfilled

INPUT: Record YSHRETVNGSWYIQDLCEMLGKYG [CASP6] ; criterion: protein stability index no lower than 3. Met?
OUTPUT: Not fulfilled

INPUT: Record FSGWISALVVPKGNTAVSVLMLLV [SCAMP3] ; criterion: protein stability index no lower than 3. Met?
OUTPUT: Not fulfilled

INPUT: Record VRQPILQYRWDMMHRLGEPQARMR [BEX1] ; criterion: protein stability index no lower than 3. Met?
OUTPUT: Fulfilled

INPUT: Record PGGNLIVELARYLVDVRQEQLQGF [DNAAF3] ; criterion: protein stability index no lower than 3. Met?
OUTPUT: Not fulfilled

INPUT: Record YGGGLGGGFGGGFAGGFVDFGACD [KRT13] ; criterion: protein stability index no lower than 3. Met?
OUTPUT: Not fulfilled

INPUT: Record DAEMELRAKEEERLNKLRLESEGS [HACD3] ; criterion: protein stability index no lower than 3. Met?
OUTPUT: Fulfilled

INPUT: Record CPATWGPSVEQAADSLDFDETFLA [FOXJ1] ; criterion: protein stability index no lower than 3. Met?
OUTPUT: Fulfilled

INPUT: Record VEATVKPELTAALRDIRAQYESIA [PRPH] ; criterion: protein stability index no lower than 3. Met?
OUTPUT: Fulfilled

INPUT: Record EIFRRHFRQLCYQETPGPREALTR [ZSCAN9] ; criterion: protein stability index no lower than 3. Met?
OUTPUT: Not fulfilled

INPUT: Record LGVLHPNTKLRQAERLFENQLVGP [APMAP] ; criterion: protein stability index no lower than 3. Met?
OUTPUT: Fulfilled

INPUT: Record IARVHGTFGAAACSIGFAVRYLNA [POP5] ; criterion: protein stability index no lower than 3. Met?
OUTPUT: Not fulfilled

INPUT: Record DLKLRKFVFSTEERTQLRLESLED [TRIB1] ; criterion: protein stability index no lower than 3. Met?
OUTPUT: Fulfilled

INPUT: Record TLSFIVDGQYMGVAFRGLKGKKLY [SPSB1] ; criterion: protein stability index no lower than 3. Met?
OUTPUT: Not fulfilled

----------
# protocol: protein stability index of a GFP-peptide fusion (GPS, HEK-293T) (PSI 1-6); higher = more stable
# assayContext: treatment: MLN4924 1 uM, 8 h; c terminus: a fixed tail appended
Decision: protein stability index >= 3 yields true, all other cases yield false.

INPUT: Record HDGKNQPSKTYPAFLEPDETFIVP [SPSB1] ; criterion: protein stability index no lower than 3. Met?
OUTPUT: true

INPUT: Record SLIPLILDLMKEWIAHSEKLPRKV [SPACA9] ; criterion: protein stability index no lower than 3. Met?
OUTPUT: false

INPUT: Record ESLKEELLSLKQNHEQEVNTLRCQ [KRT33B] ; criterion: protein stability index no lower than 3. Met?
OUTPUT: true

INPUT: Record EKEDAEKENIEKDEDDVDQELANI [SRPK2] ; criterion: protein stability index no lower than 3. Met?
OUTPUT: true

INPUT: Record PLLPAPPKTPMDGADCGIQWWNAV [LYSMD4] ; criterion: protein stability index no lower than 3. Met?
OUTPUT: true

INPUT: Record VFKCVKRLDGCIYAIKRSKKPLAG [WEE1] ; criterion: protein stability index no lower than 3. Met?
OUTPUT: false

INPUT: Record VLAAKERRCGELKRKLGLTALVGL [TPD52L3] ; criterion: protein stability index no lower than 3. Met?
OUTPUT: false

INPUT: Record YSALSCTSDASFHPAFLPQRQAIK [KCNG1] ; criterion: protein stability index no lower than 3. Met?
OUTPUT: true

INPUT: Record SGSQMSHNAVTSHQRPGWPGQPHS [NCF4] ; criterion: protein stability index no lower than 3. Met?
OUTPUT: true

INPUT: Record KNKKKKLKKKQKRQAELLEKRLQE [SRPK2] ; criterion: protein stability index no lower than 3. Met?
OUTPUT: true

INPUT: Record QKAVKSCLVCQASFCELHLKPHLE [TRIM29] ; criterion: protein stability index no lower than 3. Met?
OUTPUT: true

INPUT: Record QLWSNVTPLTFTKVSEGQADIMIS [MMP1] ; criterion: protein stability index no lower than 3. Met?
OUTPUT: false

INPUT: Record LEEQFALEAGGYQAGAARLEEELR [PRPH] ; criterion: protein stability index no lower than 3. Met?
OUTPUT: true

INPUT: Record YTSGTTGIPKGVMLSHDNITWIAG [ACSBG2] ; criterion: protein stability index no lower than 3. Met?
OUTPUT: false

INPUT: Record GGLEHVPSSSSIHNGDMEKILLDA [BNIP3L] ; criterion: protein stability index no lower than 3. Met?
OUTPUT: true

INPUT: Record QNTHLTRHQRTHTGEKPYQCNICG [ZNF263] ; criterion: protein stability index no lower than 3. Met?
OUTPUT: true

INPUT: Record GKSPVNMVTVAMVAGQCEFAHILH [ZNF649] ; criterion: protein stability index no lower than 3. Met?
OUTPUT: false

INPUT: Record LLPEKAFSDIPSPYLRGTIKMMQA [GFOD1] ; criterion: protein stability index no lower than 3. Met?
OUTPUT: false

INPUT: Record LSRVKAAALSERGQAEEELIKAKS [LRRC45] ; criterion: protein stability index no lower than 3. Met?
OUTPUT: true

INPUT: Record MPKNSKVTQREHSSEHVTESVADL [SLC6A17] ; criterion: protein stability index no lower than 3. Met?
OUTPUT: true

INPUT: Record ELRGAEPGRPARLDQLLDMPAAGL [SPSB4] ; criterion: protein stability index no lower than 3. Met?
OUTPUT: true

INPUT: Record AAPGVDLTRVLAEMREQYEAMAEK [KRT15] ; criterion: protein stability index no lower than 3. Met?
OUTPUT: true

INPUT: Record SMPQKFLGDKGLSDTPYDSSASYE [IKZF1] ; criterion: protein stability index no lower than 3. Met?
OUTPUT: true

INPUT: Record PQKASPNGSISSAGNSSRNSSQSS [BTBD10] ; criterion: protein stability index no lower than 3. Met?
OUTPUT: true

INPUT: Record RQKGTGKEYAAKFIKKRRLSSSRR [DAPK3] ; criterion: protein stability index no lower than 3. Met?
OUTPUT: true

INPUT: Record LFFAVGIAQYALLGYFIRSWRTLA [SLC22A15] ; criterion: protein stability index no lower than 3. Met?
OUTPUT: true

INPUT: Record QIFANTVDNARIVLQIDNARLAAD [KRT18] ; criterion: protein stability index no lower than 3. Met?
OUTPUT: false

INPUT: Record SHLQAAAQTPPRPGPPSAPPPPPK [SCNN1D] ; criterion: protein stability index no lower than 3. Met?
OUTPUT: true

INPUT: Record EKQELQELNDRFANFIEKVRFLEQ [PRPH] ; criterion: protein stability index no lower than 3. Met?
OUTPUT: true

INPUT: Record ESENASLREKLRLREAEIARIRDE [LRRC45] ; criterion: protein stability index no lower than 3. Met?
OUTPUT: true

INPUT: Record KMNFIKTYPAHQNRVSAIIFSLAT [WDFY1] ; criterion: protein stability index no lower than 3. Met?
OUTPUT: false

INPUT: Record FKKTAYELLDEKLLARGTMQPFNY [FEM1A] ; criterion: protein stability index no lower than 3. Met?
OUTPUT: false

INPUT: Record VAKKTPTKRSTLIISGVSKVPIAQ [C2CD2L] ; criterion: protein stability index no lower than 3. Met?
OUTPUT: true

INPUT: Record MDDSTEREQSRLTSCLKKREEMKL [TNFSF13B] ; criterion: protein stability index no lower than 3. Met?
OUTPUT: true

INPUT: Record LCNEISLSEIKDAPKVNAVDTLNV [DLC1] ; criterion: protein stability index no lower than 3. Met?
OUTPUT: true

INPUT: Record TEEDDGFVDILESDLKDDDAVPPG [CDC25B] ; criterion: protein stability index no lower than 3. Met?
OUTPUT: true

INPUT: Record LTKSQVQDKPYKCTDCGKSFNHNA [ZNF8] ; criterion: protein stability index no lower than 3. Met?
OUTPUT: true

INPUT: Record EVTASQEARGLRLSDLEDLEEEEE [IRX6] ; criterion: protein stability index no lower than 3. Met?
OUTPUT: true

INPUT: Record DVSLVGGPADCSPPHPAPAPQHPA [DYRK1B] ; criterion: protein stability index no lower than 3. Met?
OUTPUT: true

INPUT: Record NLNEDDTFLVFSKAELGALPHDFI ; criterion: protein stability index no lower than 3. Met?
OUTPUT: false
